System: Tyrosine-protein kinase Fyn (Homo sapiens, UniProt P06241) | Read-out: pIC50
Sequence (P06241 whole entry): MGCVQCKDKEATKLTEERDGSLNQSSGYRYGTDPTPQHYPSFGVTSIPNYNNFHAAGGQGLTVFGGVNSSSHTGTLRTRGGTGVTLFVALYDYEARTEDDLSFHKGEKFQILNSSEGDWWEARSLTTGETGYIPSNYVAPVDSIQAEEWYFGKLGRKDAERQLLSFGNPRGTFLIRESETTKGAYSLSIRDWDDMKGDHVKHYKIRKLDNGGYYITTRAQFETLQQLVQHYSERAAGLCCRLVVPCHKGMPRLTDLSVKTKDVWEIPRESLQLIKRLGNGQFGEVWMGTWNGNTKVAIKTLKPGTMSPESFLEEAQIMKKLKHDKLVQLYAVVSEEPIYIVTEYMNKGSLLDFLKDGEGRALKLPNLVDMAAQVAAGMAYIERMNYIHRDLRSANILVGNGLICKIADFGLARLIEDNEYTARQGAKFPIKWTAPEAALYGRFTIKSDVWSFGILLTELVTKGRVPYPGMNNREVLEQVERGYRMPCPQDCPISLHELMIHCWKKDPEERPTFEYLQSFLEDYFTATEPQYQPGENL
Where a SMILES comes first, the peptide text is derived from it. [ ]: non-standard residue; d: D form. The star is where a group is joined. pY = N[C@@H](Cc1ccc(OP(=O)(O)O)cc1)C(=O)O; Caffeoyl = O=C(/C=C/c1ccc(O)c(O)c1)*
Numbers only, as −log10 of the molar value.

• CC[C@H](C)[C@H](NC(=O)[C@H](CCC(=O)O)NC(=O)[C@H](CCC(=O)O)NC(=O)[C@H](Cc1ccc(O)cc1)NC(=O)/C=C/c1ccc(O)c(O)c1)C(=O)N[C@@H](CCC(=O)O)C(=O)O (Caffeoyl-YEEIE-OH) = 4.35

Please examine the following record next.
INPUT: Item CC[C@H](C)[C@H](NC(=O)[C@H](CCC(=O)O)NC(=O)[C@H](CCC(=O)O)NC(=O)[C@H](Cc1ccc(OP(=O)(O)O)cc1)NC(=O)/C=C/c1ccc(O)c(O)c1)C(=O)N[C@@H](CCC(=O)O)C(=O)O (Caffeoyl-[pY]EEIE-OH) has what recorded pIC50?
OUTPUT: 7.08

----------
System: Proto-oncogene tyrosine-protein kinase Src (Homo sapiens, UniProt P12931) | Read-out: pIC50
Sequence (P12931 2-536 limits assumed): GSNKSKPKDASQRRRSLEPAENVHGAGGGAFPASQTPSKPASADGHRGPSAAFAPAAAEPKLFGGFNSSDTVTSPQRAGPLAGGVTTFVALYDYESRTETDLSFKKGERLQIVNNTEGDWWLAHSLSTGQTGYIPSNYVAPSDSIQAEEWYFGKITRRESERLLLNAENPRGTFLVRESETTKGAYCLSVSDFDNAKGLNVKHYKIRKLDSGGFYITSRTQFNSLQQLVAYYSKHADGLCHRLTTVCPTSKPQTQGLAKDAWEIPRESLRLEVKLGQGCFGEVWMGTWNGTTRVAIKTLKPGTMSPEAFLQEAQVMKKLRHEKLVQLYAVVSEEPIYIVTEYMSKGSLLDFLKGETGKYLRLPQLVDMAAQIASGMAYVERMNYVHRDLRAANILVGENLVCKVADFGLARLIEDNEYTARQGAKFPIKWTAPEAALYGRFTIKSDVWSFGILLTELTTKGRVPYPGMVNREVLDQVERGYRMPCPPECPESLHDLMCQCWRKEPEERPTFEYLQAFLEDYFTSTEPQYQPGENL
Where a SMILES comes first, the peptide text is derived from it. [ ]: non-standard residue; d: D form. The star is where a group is joined. pY = N[C@@H](Cc1ccc(OP(=O)(O)O)cc1)C(=O)O; Dopa = N[C@@H](Cc1ccc(O)c(O)c1)C(=O)O; Caffeoyl = O=C(/C=C/c1ccc(O)c(O)c1)*; X1 = O=C(Cc1cc(=O)oc2cc(O)ccc12)*
One number for each entry, as −log10 of the molar value.

- CC[C@H](C)[C@H](NC(=O)[C@H](CCC(=O)O)NC(=O)[C@H](CCC(=O)O)NC(=O)[C@H](Cc1ccc(OP(=O)(O)O)cc1)NC(=O)Cc1cc(=O)oc2cc(O)ccc12)C(=O)N[C@@H](CCC(=O)O)C(=O)O (X1-[pY]EEIE-OH): 7.05

Consider the following items and state reported pIC50 for each.
1. CC[C@H](C)[C@H](NC(=O)[C@H](CCC(=O)O)NC(=O)[C@H](CCC(=O)O)NC(=O)[C@H](Cc1ccc(O)c(O)c1)NC(=O)/C=C/c1ccc(O)c(O)c1)C(=O)N[C@@H](CCC(=O)O)C(=O)O (Caffeoyl-[Dopa]EEIE-OH)
2. CC[C@H](C)[C@H](NC(=O)[C@H](CCC(=O)O)NC(=O)[C@H](CCC(=O)O)NC(=O)[C@H](Cc1ccc(O)cc1)NC(=O)/C=C/c1ccc(O)c(O)c1)C(=O)N[C@@H](CCC(=O)O)C(=O)O (Caffeoyl-YEEIE-OH)
3. CC(=O)N[C@@H](Cc1ccc(O)c(O)c1)C(=O)N[C@@H](CCC(=O)O)C(=O)N[C@@H](CCC(=O)O)C(=O)N[C@@H](CCC(=O)O)C(=O)O (Ac-[Dopa]EEE-OH)

OUTPUT:
1: 4.26; 2: 4.27; 3: 3.80

Consider the following items and state reported pIC50 for each.
1. CC[C@H](C)[C@H](NC(=O)[C@H](CCC(=O)O)NC(=O)[C@H](CCC(=O)O)NC(=O)[C@H](Cc1ccc(OP(=O)(O)O)cc1)NC(=O)/C=C/c1ccc(O)c(O)c1)C(=O)N[C@@H](CCC(=O)O)C(=O)O (Caffeoyl-[pY]EEIE-OH)
2. CC[C@H](C)[C@H](NC(=O)[C@H](CCC(=O)O)NC(=O)[C@H](CCC(=O)O)NC(=O)[C@H](Cc1ccc(O)c(O)c1)NC(=O)Cc1cc(=O)oc2cc(O)ccc12)C(=O)N[C@@H](CCC(=O)O)C(=O)O (X1-[Dopa]EEIE-OH)

OUTPUT:
1. 7.19
2. 4.19
